Here, each record is paired with measured logP-neutral data.
- experiment: log P by HPLC on reversed-phase column (C18), EEC Directive 79/831 Annex V.A8
- appliedConditions: pH 7.8

smilesRecord: CCS(=O)(=O)c1ccc(S(=O)(=O)NC)nc1-c1nc2cc(C(F)(F)F)ncc2n1C
logP-neutral: 2.08

smilesRecord: CCS(=O)(=O)c1ccc(NC(C)=O)nc1-c1nc2cc(C(F)(F)C(F)(F)F)ncc2n1C
logP-neutral: 2.47

smilesRecord: CCS(=O)(=O)c1ccc(NS(=O)(=O)C(F)(F)F)nc1-c1nc2cc(C(F)(F)F)ncc2n1C
logP-neutral: 1.20

smilesRecord: CCOCC(=O)Nc1ccc(S(=O)(=O)CC)c(-c2nc3cc(C(F)(F)F)ncc3n2C)n1
logP-neutral: 2.51

smilesRecord: CCS(=O)(=O)c1ccc(C(=O)NC2CC2)nc1-c1nc2cc(C(F)(F)F)ncc2n1C
logP-neutral: 2.27

smilesRecord: CCS(=O)(=O)c1ccc(N)nc1-c1nc2cc(C(F)(F)C(F)(F)F)ncc2n1C
logP-neutral: 2.14

smilesRecord: CCNS(=O)(=O)c1ccc(S(=O)(=O)CC)c(-c2nc3cc(C(F)(F)F)ncc3n2C)n1
logP-neutral: 2.30

smilesRecord: CCS(=O)(=O)c1ccc(NC(=O)C(F)F)nc1-c1nc2cc(C(F)(F)F)ncc2n1C
logP-neutral: 2.22

----------
- experiment: log P by HPLC on reversed-phase column (C18), EEC Directive 79/831 Annex V.A8
- appliedConditions: pH 7.8

smilesRecord: CCS(=O)(=O)c1ccc(NC(C)=S)nc1-c1nc2cc(C(F)(F)F)ncc2n1C
chromatographic logP: 2.41
//
smilesRecord: CCS(=O)(=O)c1ccc(N(C)NC)nc1-c1nc2cc(C(F)(F)F)ncc2n1C
chromatographic logP: 2.39
//
smilesRecord: CCS(=O)(=O)c1ccc(SCc2ccccc2)nc1-c1nc2cc(C(F)(F)F)ncc2n1C
chromatographic logP: 3.72

----------
- experiment: log P by HPLC on reversed-phase column (C18), EEC Directive 79/831 Annex V.A8
- appliedConditions: reversed-phase HPLC column (C18), pH 2.7, logP-acidic, LC-MS acidic range, pH 2.7 (HCOOH), C18, 55° C.
measuredQuantity: chromatographic logP

compound: CCS(=O)(=O)c1ccc(/S(C)=N/C#N)nc1-c1nc2cc(C(F)(F)F)ncc2n1C (stereo not drawn)
recordedMeasurement: 1.75
--
compound: CCS(=N)(=O)c1ccc(S(=O)(=O)CC)c(-c2nc3cc(C(F)(F)F)ncc3n2C)n1 (stereo not drawn)
recordedMeasurement: 1.78
--
compound: CCS(=O)(=O)c1ccc(C(=S)NC)nc1-c1nc2cc(C(F)(F)F)ncc2n1C
recordedMeasurement: 2.8
--
compound: CCS(=O)(=O)c1ccc(NS(C)(=O)=O)nc1-c1nc2cc(C(F)(F)F)ncc2n1C
recordedMeasurement: 1.92
--
compound: CCS(=O)(=O)c1ccc(NC(=O)C(C)C)nc1-c1nc2cc(C(F)(F)F)ncc2n1C
recordedMeasurement: 2.63
--
compound: CCS(=O)(=O)c1ccc(C(=O)OC)nc1-c1nc2cc(C(F)(F)F)ncc2n1C
recordedMeasurement: 2.17
--
compound: CCS(=O)(=O)c1ccc(/C=C/C2CC2)nc1-c1nc2cc(C(F)(F)F)ncc2n1C
recordedMeasurement: 3.33
--
compound: CCSc1ccc(S(=O)(=O)CC)c(-c2nc3cc(C(F)(F)F)ncc3n2C)n1
recordedMeasurement: 3.19
--
compound: CCS(=O)(=O)c1ccc(S(=O)(=O)CC)c(-c2nc3cc(C(F)(F)F)ncc3n2C)n1
recordedMeasurement: 2.31
--
compound: CCS(=O)(=O)c1ccc(N)nc1-c1nc2cc(C(F)(F)F)ncc2n1C
recordedMeasurement: 1.63
--
compound: CC[S+]([O-])c1ccc(S(=O)(=O)CC)c(-c2nc3cc(C(F)(F)F)ncc3n2C)n1 (stereo not drawn)
recordedMeasurement: 2.03
--
compound: CCS(=O)(=O)c1ccc(S(=O)(=O)NC(C)C)nc1-c1nc2cc(C(F)(F)F)ncc2n1C
recordedMeasurement: 2.56
--
compound: CCS(=O)(=O)c1ccc(C(=O)NC)nc1-c1nc2cc(C(F)(F)F)ncc2n1C
recordedMeasurement: 2.01
--
compound: CCOc1ccc(S(=O)(=O)CC)c(-c2nc3cc(C(F)(F)F)ncc3n2C)n1
recordedMeasurement: 2.94
--
compound: CCS(=O)(=O)c1ccc(SC)nc1-c1nc2cc(C(F)(F)F)ncc2n1C
recordedMeasurement: 2.81

----------
Here, each record is paired with measured logP-neutral data.
- experiment: log P by HPLC on reversed-phase column (C18), EEC Directive 79/831 Annex V.A8
- appliedConditions: pH 7.8
measuredQuantity: logP-neutral

smilesRecord: CCS(=O)(=O)c1ccc(OC(C)C)nc1-c1nc2cc(C(F)(F)F)ncc2n1C
measuredQuantity: logP-neutral
recordedMeasurement: 3.22
--
smilesRecord: CCS(=O)(=O)c1ccc(NC(=O)C(F)(F)F)nc1-c1nc2cc(C(F)(F)F)ncc2n1C
measuredQuantity: logP-neutral
recordedMeasurement: 1.73
--
smilesRecord: CCS(=O)(=O)c1ccc(NC(=O)COC)nc1-c1nc2cc(C(F)(F)F)ncc2n1C
measuredQuantity: logP-neutral
recordedMeasurement: 2.17
--
smilesRecord: CCS(=O)(=O)c1ccc(NC(=O)c2cscn2)nc1-c1nc2cc(C(F)(F)F)ncc2n1C
measuredQuantity: logP-neutral
recordedMeasurement: 2.58

----------
- experiment: log P by HPLC on reversed-phase column (C18), EEC Directive 79/831 Annex V.A8
- appliedConditions: pH 2.7
Here, each record is paired with measured logP-acidic data.

smilesRecord: CCS(=O)(=O)c1ccc(C(=S)NC2CC2)nc1-c1nc2cc(C(F)(F)F)ncc2n1C
logP-acidic: 3.17
//
smilesRecord: CCS(=O)(=O)c1ccc(NC(=O)c2cccnc2)nc1-c1nc2cc(C(F)(F)F)ncc2n1C
logP-acidic: 2.08
//
smilesRecord: CCSc1ccc(NC(=O)C2CC2)nc1-c1nc2cc(C(F)(F)F)ncc2n1C
logP-acidic: 2.80
//
smilesRecord: CCS(=O)(=O)c1ccc(Oc2cc(C(F)(F)F)n[nH]2)nc1-c1nc2cc(C(F)(F)F)ncc2n1C
logP-acidic: 2.77

----------
- Test system: Tetranychus urticae
- experiment: Tetranychus urticae spray test, OP-resistant
- Format: in vivo
- appliedConditions: 500 g/ha, after 6 days, spider mites killed
Here, each record is paired with measured efficacy in % data.
measuredQuantity: efficacy in % (%)

smilesRecord: CCS(=O)(=O)c1ccc(C(=O)NC2CC2)nc1-c1nc2cc(C(F)(F)F)ncc2n1C
recordedMeasurement: 90
--
smilesRecord: CCS(=O)(=O)c1ccc(NC(=O)C(F)F)nc1-c1nc2cc(C(F)(F)F)ncc2n1C
recordedMeasurement: 90
--
smilesRecord: CCS(=O)(=O)c1ccc(C(=S)NC)nc1-c1nc2cc(C(F)(F)F)ncc2n1C
recordedMeasurement: 100
--
smilesRecord: CCS(=O)(=O)c1ccc(N(C)N)nc1-c1nc2cc(C(F)(F)F)ncc2n1C
recordedMeasurement: 90

----------
- experiment: log P by HPLC on reversed-phase column (C18), EEC Directive 79/831 Annex V.A8
- appliedConditions: LC-MS neutral range, pH 7.8, C18, 55° C.
Mark 1 (yes) only when logP-neutral stays strictly below 2. Values equal to the cut-off are 0 (no).

smilesRecord: CCS(=O)(=O)c1ccc(SC(C)C)nc1-c1nc2cc(C(F)(F)F)ncc2n1C
assignedClass: 0 (no)
--
smilesRecord: CCS(=O)(=O)c1ccc(N(C)C)nc1-c1nc2cc(C(F)(F)F)ncc2n1C
assignedClass: 0 (no)
--
smilesRecord: CCS(=O)(=O)c1ccc(Sc2ccccc2)nc1-c1nc2cc(C(F)(F)F)ncc2n1C
assignedClass: 0 (no)
--
smilesRecord: CCS(=O)(=O)c1ccc(C(N)=O)nc1-c1nc2cc(C(F)(F)F)ncc2n1C
assignedClass: 1 (yes)
--
smilesRecord: CCS(=O)(=O)c1ccc(NC(=O)C(F)(F)C(F)(F)F)nc1-c1nc2cc(C(F)(F)F)ncc2n1C
assignedClass: 1 (yes)
--
smilesRecord: CCNc1ccc(S(=O)(=O)CC)c(-c2nc3cc(C(F)(F)F)ncc3n2C)n1
assignedClass: 0 (no)
--
smilesRecord: CCS(=O)(=O)c1ccc(N(C)C(C)=O)nc1-c1nc2cc(C(F)(F)F)ncc2n1C
assignedClass: 0 (no)

----------
- System: Phaedon cochleariae
- experiment: Phaedon cochleariae spray test
- Format: in vivo
- appliedConditions: 500 g/ha, after 7 days, beetle larvae killed
measuredQuantity: efficacy in % (%)

compound: CCS(=O)(=O)c1ccc(C(=S)NC2CC2)nc1-c1nc2cc(C(F)(F)F)ncc2n1C
targetEntity: Phaedon cochleariae
measuredQuantity: efficacy in %
recordedMeasurement: 100
//
compound: CCSc1ccc(NC(=O)CC)nc1-c1nc2cc(C(F)(F)F)ncc2n1C
targetEntity: Phaedon cochleariae
measuredQuantity: efficacy in %
recordedMeasurement: 100
//
compound: CCS(=O)(=O)c1ccc(NC(=O)C(F)(F)C(F)F)nc1-c1nc2cc(C(F)(F)F)ncc2n1C
targetEntity: Phaedon cochleariae
measuredQuantity: efficacy in %
recordedMeasurement: 100
//
compound: CCS(=O)(=O)c1ccc(N(C)N)nc1-c1nc2cc(C(F)(F)F)ncc2n1C
targetEntity: Phaedon cochleariae
measuredQuantity: efficacy in %
recordedMeasurement: 100
//
compound: CCS(=O)(=O)c1ccc(N(C)C(C)=O)nc1-c1nc2cc(C(F)(F)F)ncc2n1C
targetEntity: Phaedon cochleariae
measuredQuantity: efficacy in %
recordedMeasurement: 100
//
compound: CCNc1ccc(S(=O)(=O)CC)c(-c2nc3cc(C(F)(F)F)ncc3n2C)n1
targetEntity: Phaedon cochleariae
measuredQuantity: efficacy in %
recordedMeasurement: 100
//
compound: CCS(=O)(=O)c1ccc(NC(=O)C(C)CS(C)(=O)=O)nc1-c1nc2cc(C(F)(F)F)ncc2n1C (stereo not shown)
targetEntity: Phaedon cochleariae
measuredQuantity: efficacy in %
recordedMeasurement: 100
//
compound: CCS(=O)(=O)c1ccc(NC(=O)C(C)C[S+](C)[O-])nc1-c1nc2cc(C(F)(F)F)ncc2n1C (stereo not shown)
targetEntity: Phaedon cochleariae
measuredQuantity: efficacy in %
recordedMeasurement: 100
//
compound: CCS(=O)(=O)c1ccc(NC(=O)C(F)(F)F)nc1-c1nc2cc(C(F)(F)F)ncc2n1C
targetEntity: Phaedon cochleariae
measuredQuantity: efficacy in %
recordedMeasurement: 100
//
compound: CCS(=O)(=O)c1ccc(NC(=O)COC)nc1-c1nc2cc(C(F)(F)F)ncc2n1C
targetEntity: Phaedon cochleariae
measuredQuantity: efficacy in %
recordedMeasurement: 100
//
compound: CCOCC(=O)Nc1ccc(S(=O)(=O)CC)c(-c2nc3cc(C(F)(F)F)ncc3n2C)n1
targetEntity: Phaedon cochleariae
measuredQuantity: efficacy in %
recordedMeasurement: 100
//
compound: CCS(=O)(=O)c1ccc(N)nc1-c1nc2cc(C(F)(F)C(F)(F)F)ncc2n1C
targetEntity: Phaedon cochleariae
measuredQuantity: efficacy in %
recordedMeasurement: 100
//
compound: CCS(=O)(=O)c1ccc(NC(=O)C2CC2)nc1-c1nc2cc(C(F)(F)F)ncc2n1C
targetEntity: Phaedon cochleariae
measuredQuantity: efficacy in %
recordedMeasurement: 100
//
compound: CCS(=O)(=O)c1ccc(NC(=O)C(C)CSC)nc1-c1nc2cc(C(F)(F)F)ncc2n1C (stereo not shown)
targetEntity: Phaedon cochleariae
measuredQuantity: efficacy in %
recordedMeasurement: 100
//
compound: CCNC(=O)c1ccc(S(=O)(=O)CC)c(-c2nc3cc(C(F)(F)F)ncc3n2C)n1
targetEntity: Phaedon cochleariae
measuredQuantity: efficacy in %
recordedMeasurement: 100
//
compound: CCC(=O)Nc1ccc(S(=O)(=O)CC)c(-c2nc3cc(C(F)(F)F)ncc3n2C)n1
targetEntity: Phaedon cochleariae
measuredQuantity: efficacy in %
recordedMeasurement: 100
